Origin of values: PubChem BioAssay (EPA / NIEHS)

- Read-out: Thrombomodulin, THBD (gene 7056)
- protocol-description: BSK_CASM3C_Thrombomodulin: BioMAP Diversity Plus: CASM3C Assay for Thrombomodulin Biomarker Activity (AID 2283051);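 note: thrombomodulin protein level measured by ELISA 24 h after dosing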
- condition-details: primary human coronary artery smooth muscle cells; actives raise or lower the signal
Activity calls are given as the source filed them. Rule for the calls: active = hit-call score of the fitted dose curve at least 0.9, where 1 is the maximum; inactive = score below 0.9.
Outcome codes: class 1 for active, class 0 for inactive

> print(dat)
                                    molecule  class.assignment
 1  CC(C)C1OCCN1CCOC(=O)NCCCCCCNC(=O)OCCN1CCOC1C(C)C (stereo not given)           class 0
 2  CCCCCCCCCC/C=C/C1CC(=O)OC1=O (stereo not given)           class 0
 3                                 CCC(C)=NO           class 0
 4  CN(C)c1ccc(C(c2ccccc2)c2ccc(N(C)C)cc2)cc1           class 1
 5  CC[N+](CC)(CC(=O)Nc1c(C)cccc1C)Cc1ccccc1           class 0
 6  Cc1c(C(N)=O)cc([N+](=O)[O-])cc1[N+](=O)[O-]           class 0
 7        COc1cc(CNC(=O)CCCC/C=C/C(C)C)ccc1O           class 0
 8             CCCCCCCCCCCCCCCCCC[N+](C)(C)C           class 0
 9                O=C(C(=O)c1ccccc1)c1ccccc1           class 0
10        CCCCCCCCCCC1CO1 (stereo not given)           class 0
11                           Oc1cccc2ccccc12           class 1
12                            Sc1nc2ccccc2s1           class 0
13  CCCCC(CC)COC(=O)C=Cc1ccc(OC)cc1 (stereo not given)           class 0
14                                 Cc1cccnc1           class 0
15  Cc1cc(-n2nc3ccc(Cl)cc3n2)c(O)c(C(C)(C)C)c1           class 0
